- targetSystem: Human recombinant FAP (Homo sapiens, UniProt Q12884)
- Sequence (Q12884 whole entry): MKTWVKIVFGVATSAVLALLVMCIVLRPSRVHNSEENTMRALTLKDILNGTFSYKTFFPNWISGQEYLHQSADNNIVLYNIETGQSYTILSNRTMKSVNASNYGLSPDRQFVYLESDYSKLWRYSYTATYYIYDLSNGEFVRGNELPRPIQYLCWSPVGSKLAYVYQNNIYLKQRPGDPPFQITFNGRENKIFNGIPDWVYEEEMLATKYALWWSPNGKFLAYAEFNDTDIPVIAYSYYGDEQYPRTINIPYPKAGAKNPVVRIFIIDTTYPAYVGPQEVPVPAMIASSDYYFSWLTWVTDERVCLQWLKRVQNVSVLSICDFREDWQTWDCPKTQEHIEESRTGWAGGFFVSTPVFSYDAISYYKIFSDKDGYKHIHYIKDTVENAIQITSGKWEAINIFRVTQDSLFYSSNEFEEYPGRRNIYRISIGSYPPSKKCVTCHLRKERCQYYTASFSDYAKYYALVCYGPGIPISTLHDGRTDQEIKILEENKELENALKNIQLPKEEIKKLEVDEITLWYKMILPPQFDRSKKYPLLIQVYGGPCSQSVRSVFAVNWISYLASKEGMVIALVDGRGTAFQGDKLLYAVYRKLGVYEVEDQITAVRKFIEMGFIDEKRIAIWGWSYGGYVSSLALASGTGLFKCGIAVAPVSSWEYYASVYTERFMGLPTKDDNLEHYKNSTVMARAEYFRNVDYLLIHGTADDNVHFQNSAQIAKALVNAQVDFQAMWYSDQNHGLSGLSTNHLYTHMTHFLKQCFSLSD
- protocolText: Surface plasmon resonance assay (Biacore T200, single cycle kinetics)
- Type: binding
- experimentalContext: SPR, 25°C, 1:1 Langmuir binding model; read-out: pKD (Biacore) (converted)
// reported log10(Kd) per item
Lab note - Kd converted to log10 from values in nM.

Answered examples (7):
INSERT INTO measurements (compound, reportedresult) VALUES
  ('CS(=O)(=O)c1cccc(-c2ccc3nccc(C(=O)NCC(=O)N4CCC[C@H]4C#N)c3c2)c1', -0.40),
  ('CS(=O)(=O)c1cccc(-c2ccc3c(C(=O)NCC(=O)N4CCC[C@H]4C#N)ccnc3c2)c1', -0.30),
  ('O=C(NCC(=O)N1CCC[C@H]1C(=O)c1nc2ccccc2o1)c1ccnc2ccccc12', -0.30),
  ('O=C(NCC(=O)N1CCC[C@H]1C(=O)c1nccs1)c1ccnc2ccccc12', 1.10),
  ('CS(=O)(=O)c1cccc(-c2ccc3c(C(=O)NCC(=O)N4CC(F)(F)C[C@H]4C#N)ccnc3c2)c1 [drawing 289]', -1.10),
  ('O=C(NCC(=O)N1CCC[C@H]1C(=O)c1ncco1)c1ccnc2ccccc12 [drawing 297]', 0.40),
  ('CS(=O)(=O)c1ccc(-c2ccc3c(C(=O)NCC(=O)N4CCC[C@H]4C#N)ccnc3c2)cc1 [drawing 290]', -0.20);

Attention now turns to another entry.
Task: What measured log10(Kd) goes with CS(=O)(=O)c1ccc(-c2ccc3nccc(C(=O)NCC(=O)N4CC(F)(F)C[C@H]4C#N)c3c2)cc1 ?
Output: -1.60
